Recorded measurements of OD 450 nm, one per entry
# System Under Test: T1, Antigen CD66c (CEACAM6; Sino Biological, Inc.) (UniProt P40199 35-320)
# T1 construct: Bought antigen coated on the ELISA plate; construct not described; also called CD66c antigen; CECACAM6
# T1 sequence (looked up): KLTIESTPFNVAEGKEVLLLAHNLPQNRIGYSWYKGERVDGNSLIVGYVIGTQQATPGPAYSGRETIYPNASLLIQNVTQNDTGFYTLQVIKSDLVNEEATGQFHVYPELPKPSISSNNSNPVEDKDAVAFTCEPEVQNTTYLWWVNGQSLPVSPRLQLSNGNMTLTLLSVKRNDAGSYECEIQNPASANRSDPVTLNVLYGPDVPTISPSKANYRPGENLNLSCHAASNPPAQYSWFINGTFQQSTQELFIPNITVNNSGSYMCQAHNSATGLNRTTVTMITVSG
# Experiment Description: ELISA, coated CEACAM6 100 ng/well, antibody 10000.00 ng/ml

| Binder | OD 450 nm [OD] |
| --- | --- |
| recombinant humanized anti-CD66c antibody Protein ID 3007 (Vk7 + VH6) (antibody, human IgG1, V domains shown, also called hu 3007; #43) VH: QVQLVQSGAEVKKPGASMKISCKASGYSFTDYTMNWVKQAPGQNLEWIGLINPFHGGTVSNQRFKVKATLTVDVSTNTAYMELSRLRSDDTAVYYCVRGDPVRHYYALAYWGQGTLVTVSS VL: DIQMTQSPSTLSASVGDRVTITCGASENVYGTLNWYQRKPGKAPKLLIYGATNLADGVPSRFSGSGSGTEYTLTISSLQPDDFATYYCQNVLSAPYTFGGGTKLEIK | 3.37 |
| recombinant humanized anti-CD66c antibody Protein ID 3043 (Vk8 + VH6) (antibody, human IgG1, V domains shown, also called hu 3043; #71) VH: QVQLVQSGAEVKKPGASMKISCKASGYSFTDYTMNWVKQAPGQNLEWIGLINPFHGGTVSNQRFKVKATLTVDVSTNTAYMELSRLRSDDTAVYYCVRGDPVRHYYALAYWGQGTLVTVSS VL: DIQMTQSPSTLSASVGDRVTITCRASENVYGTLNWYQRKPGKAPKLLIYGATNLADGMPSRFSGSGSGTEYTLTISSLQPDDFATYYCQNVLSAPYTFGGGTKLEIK | 2.73 |
| recombinant humanized anti-CD66c antibody Protein ID 3058 (Vk8 + VH11) (antibody, human IgG1, V domains shown, also called hu 3058; #86) VH: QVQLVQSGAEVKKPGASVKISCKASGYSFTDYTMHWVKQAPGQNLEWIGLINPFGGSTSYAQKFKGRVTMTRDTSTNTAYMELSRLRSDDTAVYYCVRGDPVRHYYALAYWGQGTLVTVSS VL: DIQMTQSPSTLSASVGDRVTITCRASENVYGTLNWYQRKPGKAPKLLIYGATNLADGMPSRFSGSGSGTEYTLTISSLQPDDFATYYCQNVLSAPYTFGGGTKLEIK | 2.87 |
